Catalogue of pIC50 values
target: PARP1 (Homo sapiens, UniProt P09874); assay: PARP1 biochemical DELFIA assay (auto-PARylation); details: Table 1
Sequence (P09874 whole entry): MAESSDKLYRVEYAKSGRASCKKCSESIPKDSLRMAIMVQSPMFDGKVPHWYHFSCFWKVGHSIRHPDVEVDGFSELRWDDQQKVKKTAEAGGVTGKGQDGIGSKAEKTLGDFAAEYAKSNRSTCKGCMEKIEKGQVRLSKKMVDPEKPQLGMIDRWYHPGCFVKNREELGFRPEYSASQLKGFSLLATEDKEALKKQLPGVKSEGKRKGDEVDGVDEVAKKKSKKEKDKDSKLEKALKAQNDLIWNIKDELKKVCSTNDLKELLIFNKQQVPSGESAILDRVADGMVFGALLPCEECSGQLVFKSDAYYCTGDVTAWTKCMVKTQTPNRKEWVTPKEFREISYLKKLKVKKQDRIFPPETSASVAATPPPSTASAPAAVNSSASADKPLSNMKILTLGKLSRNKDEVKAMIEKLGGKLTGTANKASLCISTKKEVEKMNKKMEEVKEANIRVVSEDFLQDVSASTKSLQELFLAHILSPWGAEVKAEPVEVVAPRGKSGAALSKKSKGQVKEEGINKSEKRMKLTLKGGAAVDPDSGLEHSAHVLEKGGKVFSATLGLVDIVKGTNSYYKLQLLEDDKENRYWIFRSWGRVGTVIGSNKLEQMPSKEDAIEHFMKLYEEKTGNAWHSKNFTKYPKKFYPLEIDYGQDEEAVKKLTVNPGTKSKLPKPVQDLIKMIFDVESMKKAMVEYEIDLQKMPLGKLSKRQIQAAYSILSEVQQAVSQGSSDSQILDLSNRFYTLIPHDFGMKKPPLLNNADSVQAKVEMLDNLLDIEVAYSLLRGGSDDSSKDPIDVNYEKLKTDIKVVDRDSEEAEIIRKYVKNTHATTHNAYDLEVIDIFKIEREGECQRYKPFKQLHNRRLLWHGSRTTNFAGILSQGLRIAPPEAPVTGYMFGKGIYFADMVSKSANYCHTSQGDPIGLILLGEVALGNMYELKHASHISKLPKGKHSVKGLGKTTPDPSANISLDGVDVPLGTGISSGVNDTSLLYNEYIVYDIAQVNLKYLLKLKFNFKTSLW
pIC50: −log10 of the molar value.

{"columns": ["Molecule", "pIC50"],
 "data": [
  ["CCc1cc(C2CCCN(CCC(=O)N3CCN(c4ncc(C(F)(F)F)cn4)CC3)C2)n[nH]c1=O (single isomer, unassigned) [Compound 6a]", "7.00 to 8.00"],
  ["O=C(CCN1CCCC(c2cc(C(F)(F)F)c(=O)[nH]n2)C1)N1CCN(c2ncc(Cl)cn2)CC1 (racemic)", "6.00 to 7.00"],
  ["O=C(CCN1CCCC(c2cc(C(F)(F)F)c(=O)[nH]n2)C1)N1CCN(c2ncc(OC(F)(F)F)cn2)CC1 (single isomer, unassigned) [Compound 13a]", "6.00 to 7.00"],
  ["O=C(CCN1CCCC(c2cc(C(F)(F)F)c(=O)[nH]n2)C1)N1CCN(c2ncc(C(F)(F)F)s2)CC1 (single isomer, unassigned) [Compound 27b]", "7.00 to 8.00"],
  ["O=C(CCN1CCCCC1c1cc(C(F)(F)F)c(=O)[nH]n1)N1CCN(c2ncc(C(F)(F)F)cn2)CC1 (racemic)", "7.00 to 8.00"],
  ["O=C(CN1CCN(c2ncc(C(F)(F)F)cn2)CC1)N1CCCC1c1cc(C(F)(F)F)c(=O)[nH]n1 (single isomer, unassigned) [Compound 32a]", "6.00 to 7.00"],
  ["CCc1cc(C2CCCN(CCC(=O)N3CCN(c4ncc(C(F)(F)F)cn4)CC3)C2)n[nH]c1=O (single isomer, unassigned) [Compound 6b]", "6.00 to 7.00"],
  ["O=C(CN1CCN(c2ncc(C(F)(F)F)cn2)CC1)N1CCCC1c1cc(C(F)(F)F)c(=O)[nH]n1 (single isomer, unassigned) [Compound 32b]", "< 5.00"],
  ["O=C(CN1CCCC1c1cc(C(F)(F)F)c(=O)[nH]n1)N1CCN(c2ncc(C(F)(F)F)cn2)CC1 (single isomer, unassigned) [Compound 24b]", "7.00 to 8.00"],
  ["O=C(CCN1CCCC(c2c[nH]c(=O)c(C(F)(F)F)c2)C1)N1CCN(c2ncc(C(F)(F)F)cn2)CC1 (single isomer, unassigned) [Compound 25b]", "7.00 to 8.00"],
  ["O=C(CCN1CCCC(c2cc(C(F)(F)F)c(=O)[nH]n2)C1)N1CCN(c2ncc(F)cn2)CC1 (racemic)", "6.00 to 7.00"],
  ["CNC(=O)c1ccc(N2CCN(C(=O)CCN3CCCC(c4cc(C(F)(F)F)c(=O)[nH]n4)C3)CC2)nc1 (single isomer, unassigned) [Compound 28b]", "6.00 to 7.00"],
  ["O=C(CCN1CCCC1c1cc(C(F)(F)F)c(=O)[nH]n1)N1CCN(c2ncc(C(F)(F)F)cn2)CC1 (single isomer, unassigned) [Compound 18a]", "7.00 to 8.00"],
  ["O=C(CCC1CCN(c2ncc(C(F)(F)F)cn2)CC1)N1CCCC(c2cc(C(F)(F)F)c(=O)[nH]n2)C1 (single isomer, unassigned) [Compound 4b]", "6.00 to 7.00"],
  ["O=C(CCN1CCCC(c2c[nH]c(=O)c(C(F)(F)F)c2)C1)N1CCN(c2ncc(C(F)(F)F)cn2)CC1 (single isomer, unassigned) [Compound 25a]", "7.00 to 8.00"],
  ["O=C(CCN1CCCC(c2cc(C(F)(F)F)c(=O)[nH]n2)C1)N1CCN(c2ncc(C(F)(F)F)s2)CC1 (single isomer, unassigned) [Compound 27a]", "7.00 to 8.00"],
  ["O=C(CCN1CCCC(c2cc(C(F)(F)F)c(=O)[nH]n2)C1)N1CCN(c2ncc(C(F)(F)F)cn2)CC1 (single isomer, unassigned) [Compound 1a]", "6.00 to 7.00"],
  ["CCc1cc(C2CCCN(CCC(=O)N3CCN(c4ncc(C(F)(F)F)cn4)CC3)C2)c[nH]c1=O (racemic)", "6.00 to 7.00"],
  ["O=C(CCN1CCCC(c2cc(C(F)(F)F)c(=O)[nH]n2)C1)N1CCN(c2ccc(F)cn2)CC1 (single isomer, unassigned) [Compound 8b]", "6.00 to 7.00"],
  ["O=C(CCN1CCCC(c2cc(C(F)(F)F)c(=O)[nH]n2)C1)N1CCN(c2ccc(Cl)cn2)CC1 (single isomer, unassigned) [Compound 15a]", "6.00 to 7.00"],
  ["O=C(CCN1CCCC1c1cc(C(F)(F)F)c(=O)[nH]n1)N1CCN(c2ncc(C(F)(F)F)cn2)CC1 (single isomer, unassigned) [Compound 18b]", "7.00 to 8.00"],
  ["O=C(CCN1CCCC(c2cc(C(F)(F)F)c(=O)[nH]n2)C1)N1CCN(c2cnc(C(F)(F)F)cn2)CC1 (racemic)", "6.00 to 7.00"],
  ["O=C(CCN1CCCC(c2cc(C(F)(F)F)c(=O)[nH]n2)C1)N1CCN(c2ccc(F)cn2)CC1 (single isomer, unassigned) [Compound 8a]", "6.00 to 7.00"]
]}
